- Assayed System: Mmp7 (rat)
- Test Details: reporter assay of Huesken 2005
- Test Parameters: siRNA
Oligonucleotides are given in HELM: sugar(base)linkage, 5' to 3'; d 2'-deoxyribose, r ribose, m 2'-O-methylribose, p phosphate. ss, as = sense and antisense strand
Value Type: normalised inhibition (eCFP-eYFP dual reporter)
Reply with the number and its unit after it.

RNA1{r(G)p.r(G)p.r(U)p.r(U)p.r(U)p.r(G)p.r(C)p.r(C)p.r(G)p.r(G)p.r(A)p.r(G)p.r(A)p.r(C)p.r(U)p.r(G)p.r(G)p.r(A)p.r(A)p.d(T)p.d(T)}|RNA2{r(U)p.r(U)p.r(C)p.r(C)p.r(A)p.r(G)p.r(U)p.r(C)p.r(U)p.r(C)p.r(C)p.r(G)p.r(G)p.r(C)p.r(A)p.r(A)p.r(A)p.r(C)p.r(C)p.d(G)p.d(A)}$$$RNA1{StrandType:ss}|RNA2{StrandType:as}$    103%

Now look at this one.
normalised inhibition (eCFP-eYFP dual reporter) for "RNA1{r(A)p.r(C)p.r(U)p.r(C)p.r(U)p.r(U)p.r(C)p.r(U)p.r(G)p.r(U)p.r(U)p.r(C)p.r(C)p.r(C)p.r(A)p.r(G)p.r(U)p.r(U)p.r(C)p.d(T)p.d(T)}|RNA2{r(G)p.r(A)p.r(A)p.r(C)p.r(U)p.r(G)p.r(G)p.r(G)p.r(A)p.r(A)p.r(C)p.r(A)p.r(G)p.r(A)p.r(A)p.r(G)p.r(A)p.r(G)p.r(U)p.d(G)p.d(A)}$$$RNA1{StrandType:ss}|RNA2{StrandType:as}$" ?
81.4%

---

- Assayed System: UBE2N
- Test Details: reporter assay of Huesken 2005
- Test Parameters: siRNA
Oligonucleotides are given in HELM: sugar(base)linkage, 5' to 3'; d 2'-deoxyribose, r ribose, m 2'-O-methylribose, p phosphate. ss, as = sense and antisense strand
Outcome label depends on normalised inhibition (eCFP-eYFP dual reporter) relative to 60%: at/above gives 1, below gives 0.

Worked examples, 3 substances total:
RNA1{r(U)p.r(A)p.r(G)p.r(A)p.r(G)p.r(C)p.r(A)p.r(U)p.r(G)p.r(G)p.r(A)p.r(C)p.r(U)p.r(A)p.r(G)p.r(G)p.r(C)p.r(U)p.r(A)p.d(T)p.d(T)}|RNA2{r(U)p.r(A)p.r(G)p.r(C)p.r(C)p.r(U)p.r(A)p.r(G)p.r(U)p.r(C)p.r(C)p.r(A)p.r(U)p.r(G)p.r(C)p.r(U)p.r(C)p.r(U)p.r(A)p.d(G)p.d(C)}$$$RNA1{StrandType:ss}|RNA2{StrandType:as}$    1
RNA1{r(A)p.r(C)p.r(C)p.r(C)p.r(A)p.r(A)p.r(U)p.r(G)p.r(G)p.r(C)p.r(A)p.r(G)p.r(C)p.r(C)p.r(C)p.r(C)p.r(U)p.r(A)p.r(A)p.d(T)p.d(T)}|RNA2{r(U)p.r(U)p.r(A)p.r(G)p.r(G)p.r(G)p.r(G)p.r(C)p.r(U)p.r(G)p.r(C)p.r(C)p.r(A)p.r(U)p.r(U)p.r(G)p.r(G)p.r(G)p.r(U)p.d(A)p.d(T)}$$$RNA1{StrandType:ss}|RNA2{StrandType:as}$    1
RNA1{r(G)p.r(C)p.r(A)p.r(A)p.r(A)p.r(U)p.r(G)p.r(A)p.r(U)p.r(G)p.r(U)p.r(A)p.r(G)p.r(C)p.r(G)p.r(G)p.r(A)p.r(G)p.r(C)p.d(T)p.d(T)}|RNA2{r(G)p.r(C)p.r(U)p.r(C)p.r(C)p.r(G)p.r(C)p.r(U)p.r(A)p.r(C)p.r(A)p.r(U)p.r(C)p.r(A)p.r(U)p.r(U)p.r(U)p.r(G)p.r(C)p.d(T)p.d(A)}$$$RNA1{StrandType:ss}|RNA2{StrandType:as}$    0

Would you kindly look at the next entry?
Determine whether measured normalised inhibition (eCFP-eYFP dual reporter) meets or exceeds 60% for "RNA1{r(G)p.r(U)p.r(U)p.r(C)p.r(C)p.r(U)p.r(G)p.r(G)p.r(C)p.r(A)p.r(U)p.r(C)p.r(A)p.r(A)p.r(A)p.r(G)p.r(C)p.r(C)p.r(G)p.d(T)p.d(T)}|RNA2{r(C)p.r(G)p.r(G)p.r(C)p.r(U)p.r(U)p.r(U)p.r(G)p.r(A)p.r(U)p.r(G)p.r(C)p.r(C)p.r(A)p.r(G)p.r(G)p.r(A)p.r(A)p.r(C)p.d(T)p.d(G)}$$$RNA1{StrandType:ss}|RNA2{StrandType:as}$"
1

---

- Assayed System: UBE2V1
- Test Details: reporter assay of Huesken 2005
- Test Parameters: siRNA
Oligonucleotides are written 5' to 3', each unit as a sugar letter and its base; * is a phosphorothioate linkage, no mark a phosphodiester; rarer units and linkages stand in square brackets, end groups in braces. Plain capitals give the bases only. d = 2'-deoxy (DNA); r = 2'-OH (RNA)
Value Type: normalised inhibition (eCFP-eYFP dual reporter) (%)
One number for each entry, in %.

Below, 5 substances whose answers are already recorded.
sense rUrGrCrUrArGrCrArArArArUrGrGrCrArGrArAdTdT / antisense rUrUrCrUrGrCrCrArUrUrUrUrGrCrUrArGrCrAdCdT    71.4
sense rGrCrCrUrCrCrArArGrArArCrArArUrUrUrArUdTdT / antisense rArUrArArArUrUrGrUrUrCrUrUrGrGrArGrGrCdCdC    76.5
sense rUrArCrArArGrArUrGrGrArCrArGrGrGrArUrGdTdT / antisense rCrArUrCrCrCrUrGrUrCrCrArUrCrUrUrGrUrAdAdG    52.7
sense rGrCrArGrArArUrUrCrArUrArUrArGrCrArUrCdTdT / antisense rGrArUrGrCrUrArUrArUrGrArArUrUrCrUrGrCdCdA    82
sense rGrGrUrGrGrArCrCrCrArArGrArGrCrCrArUrAdTdT / antisense rUrArUrGrGrCrUrCrUrUrGrGrGrUrCrCrArCrCdAdC    84.1

Now look at this one.
Request body: readout normalised inhibition (eCFP-eYFP dual reporter), system UBE2V1, query sense rGrUrCrUrArArArGrArArArArUrArUrGrArArAdTdT / antisense rUrUrUrCrArUrArUrUrUrUrCrUrUrUrArGrArCdAdT . Return the value.
75.3

---

Please respond with reported normalised inhibition (eCFP-eYFP dual reporter) for every item in the list.
- Assayed System: Mmp7 (rat)
- Test Details: reporter assay of Huesken 2005
- Test Parameters: siRNA
Oligonucleotides are given in HELM: sugar(base)linkage, 5' to 3'; d 2'-deoxyribose, r ribose, m 2'-O-methylribose, p phosphate. ss, as = sense and antisense strand
Answers are plain numbers, in %.

RNA1{r(G)p.r(G)p.r(U)p.r(G)p.r(A)p.r(G)p.r(G)p.r(A)p.r(C)p.r(U)p.r(C)p.r(A)p.r(G)p.r(G)p.r(C)p.r(G)p.r(U)p.r(G)p.r(A)p.d(T)p.d(T)}|RNA2{r(U)p.r(C)p.r(A)p.r(C)p.r(G)p.r(C)p.r(C)p.r(U)p.r(G)p.r(A)p.r(G)p.r(U)p.r(C)p.r(C)p.r(U)p.r(C)p.r(A)p.r(C)p.r(C)p.d(A)p.d(T)}$$$RNA1{StrandType:ss}|RNA2{StrandType:as}$    94.6

Lab note: each substance below needs its normalised inhibition (eCFP-eYFP dual reporter) filled in.
1. RNA1{r(U)p.r(G)p.r(G)p.r(U)p.r(G)p.r(A)p.r(G)p.r(G)p.r(A)p.r(C)p.r(U)p.r(C)p.r(A)p.r(G)p.r(G)p.r(C)p.r(G)p.r(U)p.r(G)p.d(T)p.d(T)}|RNA2{r(C)p.r(A)p.r(C)p.r(G)p.r(C)p.r(C)p.r(U)p.r(G)p.r(A)p.r(G)p.r(U)p.r(C)p.r(C)p.r(U)p.r(C)p.r(A)p.r(C)p.r(C)p.r(A)p.d(T)p.d(C)}$$$RNA1{StrandType:ss}|RNA2{StrandType:as}$
2. RNA1{r(A)p.r(A)p.r(A)p.r(C)p.r(U)p.r(G)p.r(A)p.r(G)p.r(G)p.r(G)p.r(A)p.r(A)p.r(A)p.r(U)p.r(G)p.r(C)p.r(A)p.r(G)p.r(A)p.d(T)p.d(T)}|RNA2{r(U)p.r(C)p.r(U)p.r(G)p.r(C)p.r(A)p.r(U)p.r(U)p.r(U)p.r(C)p.r(C)p.r(C)p.r(U)p.r(C)p.r(A)p.r(G)p.r(U)p.r(U)p.r(U)p.d(G)p.d(T)}$$$RNA1{StrandType:ss}|RNA2{StrandType:as}$
3. RNA1{r(A)p.r(C)p.r(U)p.r(U)p.r(C)p.r(A)p.r(G)p.r(U)p.r(C)p.r(U)p.r(U)p.r(A)p.r(C)p.r(A)p.r(A)p.r(A)p.r(G)p.r(G)p.r(A)p.d(T)p.d(T)}|RNA2{r(U)p.r(C)p.r(C)p.r(U)p.r(U)p.r(U)p.r(G)p.r(U)p.r(A)p.r(A)p.r(G)p.r(A)p.r(C)p.r(U)p.r(G)p.r(A)p.r(A)p.r(G)p.r(U)p.d(C)p.d(T)}$$$RNA1{StrandType:ss}|RNA2{StrandType:as}$
4. RNA1{r(G)p.r(U)p.r(U)p.r(C)p.r(U)p.r(G)p.r(U)p.r(G)p.r(A)p.r(U)p.r(G)p.r(U)p.r(A)p.r(C)p.r(C)p.r(C)p.r(U)p.r(A)p.r(C)p.d(T)p.d(T)}|RNA2{r(G)p.r(U)p.r(A)p.r(G)p.r(G)p.r(G)p.r(U)p.r(A)p.r(C)p.r(A)p.r(U)p.r(C)p.r(A)p.r(C)p.r(A)p.r(G)p.r(A)p.r(A)p.r(C)p.d(T)p.d(G)}$$$RNA1{StrandType:ss}|RNA2{StrandType:as}$

1. 69.8
2. 116
3. 112
4. 105
